Where do these numbers come from? They come from ChEMBL document CHEMBL3425497.

Molecular target: CYP1A2 (Homo sapiens)
Sequence (P05177 whole entry): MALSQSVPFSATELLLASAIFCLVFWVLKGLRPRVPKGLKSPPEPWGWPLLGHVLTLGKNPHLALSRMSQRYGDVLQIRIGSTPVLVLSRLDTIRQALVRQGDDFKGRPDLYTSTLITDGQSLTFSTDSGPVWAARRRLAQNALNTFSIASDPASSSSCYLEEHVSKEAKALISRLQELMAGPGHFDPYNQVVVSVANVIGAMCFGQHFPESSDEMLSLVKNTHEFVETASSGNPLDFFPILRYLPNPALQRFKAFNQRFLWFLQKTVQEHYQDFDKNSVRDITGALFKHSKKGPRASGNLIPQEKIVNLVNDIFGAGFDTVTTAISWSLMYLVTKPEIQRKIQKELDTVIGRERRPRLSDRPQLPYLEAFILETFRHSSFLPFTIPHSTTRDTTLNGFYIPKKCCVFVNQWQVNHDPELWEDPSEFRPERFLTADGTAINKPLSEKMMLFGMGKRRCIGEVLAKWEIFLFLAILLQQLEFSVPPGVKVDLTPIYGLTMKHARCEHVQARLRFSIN
Assay: Inhibition of CYP1A2 (unknown origin) at 600 nM
Format: ADME
Measurement Name: inhibition at 0.6 µM (%)
Answers are plain numbers, in %.

## Task Return reported inhibition at 0.6 µM; argument: COc1cc(NC(=O)CCN2CCC(OC(=O)Nc3ccccc3-c3ccccc3)CC2)c(Cl)cc1CNC[C@H](O)c1ccc(O)c2[nH]c(=O)ccc12
## Result 25
